Tested on: Human immunodeficiency virus 1
experiment description: Antiviral activity against 0.1 MOI of Human immunodeficiency virus 1 LAI infected human PBM cells after 2 to 3 hr by scintillation counting analysis in presence of [3H]thymidine-5'-triphosphate
Assay type: functional, organism-based
condition summary: PBMC
pEC50: −log10 of the molar value.
Parameter threshold = 5. Response is Y when pEC50 meets or exceeds it, else N.

                                    compound  group
 0     O=C(/C=C/c1ccc(N2CCCCC2)cc1)c1sccc1Br      Y
 1  Cc1cc(C2=NNC(c3ccc(N4CCCCC4)cc3)C2)c(C)s1 (centres undefined)      N
 2  Ic1ccc(C2=NNC(c3ccc(N4CCCCC4)cc3)C2)s1 (centres undefined)      N
 3  Clc1ccsc1C1=NNC(c2ccc(N3CCCCC3)cc2)C1 (centres undefined)      Y
 4       O=C(/C=C/c1ccc(N2CCCCC2)cc1)c1ccsc1      N
 5  Cc1ccsc1C1=NNC(c2ccc(N3CCCCC3)cc2)C1 (centres undefined)      Y
 6      Cc1ccsc1C(=O)/C=C/c1ccc(N2CCCCC2)cc1      Y
 7  Clc1ccc(C2=NNC(c3ccc(N4CCCCC4)cc3)C2)s1 (centres undefined)      N
 8   O=C(/C=C/c1ccc(N2CCCCC2)cc1)c1ccc(Br)s1      N
 9  Clc1cc(C2=NNC(c3ccc(N4CCCCC4)cc3)C2)c(Cl)s1 (centres undefined)      N
10   O=C(/C=C/c1ccc(N2CCCCC2)cc1)c1ccc(Cl)s1      N
11    Cc1ccc(C(=O)/C=C/c2ccc(N3CCCCC3)cc2)s1      N
12  Brc1ccsc1C1=NNC(c2ccc(N3CCCCC3)cc2)C1 (centres undefined)      N
13       O=C(/C=C/c1ccc(N2CCCCC2)cc1)c1cccs1      N

====

The compounds listed here are annotated with their IC50.
Test system: CCRF-CEM
experiment description: Cytotoxicity against Homo sapiens (human) CEM cells after 5 days celltiter 96 aqueous assay
Type: cell-based
condition summary: 120 h
observable: IC50 (µM)

                                mol_smiles  target_system  test_value
0  O=C(/C=C/c1ccc(N2CCCCC2)cc1)c1ccc(Cl)s1       CCRF-CEM        41.5
1   Cc1ccc(C(=O)/C=C/c2ccc(N3CCCCC3)cc2)s1       CCRF-CEM        21.2
2   O=C(/C=C/c1ccc(N2CCCCC2)cc1)c1ccc(I)s1       CCRF-CEM          22

====

System: Human immunodeficiency virus 1
experiment description: Antiviral activity against 0.1 MOI of Human immunodeficiency virus 1 LAI infected human PBM cells after 2 to 3 hr by scintillation counting analysis in presence of [3H]thymidine-5'-triphosphate
Format: functional, organism-based
condition summary: PBMC
pEC50: −log10 of the molar value.
The compounds listed here are annotated with their pEC50.
observable: pEC50

>>> df
                                   compound  test_value
0  Cc1cc(C(=O)/C=C/c2ccc(N3CCCCC3)cc2)c(C)s1        4.94
1     O=C(/C=C/c1ccc(N2CCCCC2)cc1)c1sccc1Cl        5.08
2    O=C(/C=C/c1ccc(N2CCCCC2)cc1)c1ccc(I)s1        4.94
3  Cc1csc(C2=NNC(c3ccc(N4CCCCC4)cc3)C2)c1 (stereo not given)        4.89
4  O=C(/C=C/c1ccc(N2CCCCC2)cc1)c1cc(Cl)sc1Cl        4.93
5    Cc1csc(C(=O)/C=C/c2ccc(N3CCCCC3)cc2)c1        4.94
6  c1csc(C2=NNC(c3ccc(N4CCCCC4)cc3)C2)c1 (stereo not given)        5.14
7  Brc1ccc(C2=NNC(c3ccc(N4CCCCC4)cc3)C2)s1 (stereo not given)        5.05
8  Cc1ccc(C2=NNC(c3ccc(N4CCCCC4)cc3)C2)s1 (stereo not given)        5.14
9  c1cc(C2=NNC(c3ccc(N4CCCCC4)cc3)C2)cs1 (stereo not given)        4.95
